# system tested: T1, FPRL1 (FPR-related receptor 1) (UniProt P25090 1-351, limits assumed)
# T1 construct: whole, on cells; Expressed in CHO cells (with Gα16 in the calcium flux assay); also called lipoxin A4 receptor; LXA4R
# T1 sequence (looked up): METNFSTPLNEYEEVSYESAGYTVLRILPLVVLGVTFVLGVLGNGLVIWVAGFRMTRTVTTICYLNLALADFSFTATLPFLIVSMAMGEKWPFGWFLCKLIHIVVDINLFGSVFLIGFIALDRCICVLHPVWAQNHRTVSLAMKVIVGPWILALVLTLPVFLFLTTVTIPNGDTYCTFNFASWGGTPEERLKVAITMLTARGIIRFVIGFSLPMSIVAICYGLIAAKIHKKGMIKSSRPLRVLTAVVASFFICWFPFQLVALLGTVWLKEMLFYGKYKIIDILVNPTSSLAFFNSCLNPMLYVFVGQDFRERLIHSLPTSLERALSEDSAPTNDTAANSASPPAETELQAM
# procedure text: competitive radioligand binding against 0.025 nM [125I] WKYMVm on FPRL1-transfected CHO cells, 90 min at 25 C
No end group written: not given here.
measured parameter: IC50
Value and unit, in that order.

Value lookup for IC50; key = TIPMFVPESTSKLQKFTSWFM-NH2 (Synthetic peptide (SPPS); also called P58; peptide P58) [Peptide 58]
189 nM

These entries and their values trace back to patent US20090054342A1.
